B1: Protein S100-G, residues 1 to 79; numbered along this chain, P02633 (parent)
chain: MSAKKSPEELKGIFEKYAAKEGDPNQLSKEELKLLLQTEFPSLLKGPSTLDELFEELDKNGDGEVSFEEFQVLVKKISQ

- Variants of: B1
- METHOD: abundance fitness (aPCA) (normalised: wild type 0, dead -1); higher = more abundant; growth selection in yeast, the domain comes from the species named
- PARTICULARS: Bos taurus
Field: class. Source value: abundance fitness. Ranges: range 1: < -0.06; range 2: ≥ -0.06 and < 0.002; range 3: ≥ 0.002

Worked cases, answers included:
IN: Which band does P47V fall in?
OUT: range 3

IN: # bin lookup: classify F67A by its abundance fitness
OUT: range 1

IN: Any idea which band S42P is in?
OUT: range 3

IN: Textbook exercise: identify the category of the variant given here, K45T , according to its measured value.
OUT: range 2

More entries:
IN: Bin? D62R
OUT: range 2

IN: Band assignment needed for F54W please.
OUT: range 3

IN: Determine which band this variant sits in: E21I
OUT: range 2

IN: For G63R , which abundance fitness bin applies?
OUT: range 2

IN: Looking at L32P , which class would you pick?
OUT: range 1
